Target: T1, recombinant human IL-23 (p19/p40) (human, UniProt Q9NPF7 20-189; P29460 23-328)
T1 sequence (looked up) 1: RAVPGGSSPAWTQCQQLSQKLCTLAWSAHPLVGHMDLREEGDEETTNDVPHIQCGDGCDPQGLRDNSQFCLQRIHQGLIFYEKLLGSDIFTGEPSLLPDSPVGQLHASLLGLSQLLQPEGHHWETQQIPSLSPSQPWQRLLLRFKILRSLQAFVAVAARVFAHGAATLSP
T1 sequence (looked up) 2: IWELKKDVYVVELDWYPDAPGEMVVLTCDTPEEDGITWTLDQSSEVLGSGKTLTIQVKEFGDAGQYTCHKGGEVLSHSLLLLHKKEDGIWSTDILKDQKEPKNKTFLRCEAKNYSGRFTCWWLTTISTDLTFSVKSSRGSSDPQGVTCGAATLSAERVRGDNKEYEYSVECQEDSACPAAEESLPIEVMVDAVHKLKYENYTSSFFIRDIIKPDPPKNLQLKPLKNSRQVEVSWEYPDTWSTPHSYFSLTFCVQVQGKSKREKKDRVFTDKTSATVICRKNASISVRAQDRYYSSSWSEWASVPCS
Test: cell-based or functional assay
Quick reference for IC50, splenocyte assay, 19 pM hIL-23 among some binders
Enter your answer as a number in pM; do not include the unit.

P23IL119A3-35GS-81G2-GGGC-PEG40 branched (bispecific antibody, branched mPEG40 (maleimide) on the C-terminal Cys of GGGC) EVQLVESGGGLVQAGGSLRLSCAASGRIFSLPASGNIFNLLTIAWHRQAPGMQRELVATINSGSRTNYADSVKGRFTISRDNAQKTVYLQMNNLKPEDTAVYYCQTSGSGSPNFWGQGTQVTVSSGGGGSGGGGSGGGGSGGGGSGGGGSGGGGSGGGGSEVQLVESGGGLVQPGGSLRLSCIASGLPFSTKSMGWFRQAPGKEREFVARISPGGTSRYYGDFVKGRFAISRDNAKNTTWLQMNSLKAEDTAVYYCASGERSTYIGSNYYRTNEYDYWGTGTQVTVSSGGGC    5.6

Now look at this entry.
Kindly indicate its recorded IC50, splenocyte assay, 19 pM hIL-23. Item: P23IL-121A2-35GS-119G7 (bispecific antibody) EVQLVESGGGLVQAGGSLRLSCAASGSIFNFNYMGWFRQAPGKEREFVAAIRWSGSSTYYADSVKGRFTISRDDAKNTVALQMNSLKPEDTAIYYCALRKGIPYSTSDRVIKGVNDYDYWGQGTQVTVSSGGGGSGGGGSGGGGSGGGGSGGGGSGGGGSGGGGSEVQLVESGGGLVQAGGSLTLSCAVSGLTFNNYAMGWFRQVPGKEREFVAAISRSGLRTFYSDSVKGRFTISRDSAKSTVYVQMNNLKPEDTAVYFCAADRRTYYSEGPSLTDTLRYDYWGQGTQVTVSS
26
